target: Cytochrome P450 1A2 (Homo sapiens); assay: Cytochrome panel assay with activity outcomes; conditions: recombinant CYP, pro-luciferin dealkylation, luminescence, p450-cyp1a2; series mostly up to 57.1 µM
The campaign covered roughly 16,000 compounds. About 5,700 (36%) were called active. Inconclusive results (about 24%) are left out. This is one part of the list.
MEASUREMENT TYPE: AC50

COMPOUND	SYSTEM UNDER TEST	RESULT VALUE
O=C(N/N=C/c1cccnc1)c1ccc([N+](=O)[O-])cc1	Cytochrome P450 1A2 (Homo sapiens)	5.01 µM (active)
O=[N+]([O-])c1ccc(/C=N/N/C(=N/c2ccccn2)c2ccccn2)cc1	Cytochrome P450 1A2 (Homo sapiens)	12.6 µM (active)
COc1cc(/C=N/NC(=O)c2ccncc2)ccc1OC(=O)c1ccc([N+](=O)[O-])cc1	Cytochrome P450 1A2 (Homo sapiens)	inactive
CCn1c(COc2ccc(OC)cc2)nc2ccccc21	Cytochrome P450 1A2 (Homo sapiens)	14.1 µM (active)
O=C(N/N=C/c1ccc(F)cc1)c1ccc(Br)cc1	Cytochrome P450 1A2 (Homo sapiens)	0.794 µM (active)
O=C(c1cc(C(F)(F)F)cc(C(F)(F)F)c1)N1CCC2(CCCN(Cc3nccs3)C2)CC1	Cytochrome P450 1A2 (Homo sapiens)	inactive
CC(=O)c1c(C)nc(-c2ccccc2)n1O	Cytochrome P450 1A2 (Homo sapiens)	15.8 µM (active)
CCn1c(N)nc2ccccc21	Cytochrome P450 1A2 (Homo sapiens)	25.1 µM (active)
CCCC12CN3CC(CCC)(CN(C1)C3C(O)C(O)C(O)CO)C2=O (stereo unspecified)	Cytochrome P450 1A2 (Homo sapiens)	inactive
COc1ccc(OCc2nnc(SCC(=O)O)n2N)cc1	Cytochrome P450 1A2 (Homo sapiens)	inactive
O=C(O)CSCNC(=O)CC12CC3CC(CC(C3)C1)C2	Cytochrome P450 1A2 (Homo sapiens)	inactive

###

target: Cytochrome P450 1A2 (Homo sapiens) (UniProt P05177); test: Cytochrome panel assay with activity outcomes; details: recombinant CYP, pro-luciferin dealkylation, luminescence, p450-cyp1a2; series mostly up to 57.1 µM
Sequence (P05177 whole entry, looked up): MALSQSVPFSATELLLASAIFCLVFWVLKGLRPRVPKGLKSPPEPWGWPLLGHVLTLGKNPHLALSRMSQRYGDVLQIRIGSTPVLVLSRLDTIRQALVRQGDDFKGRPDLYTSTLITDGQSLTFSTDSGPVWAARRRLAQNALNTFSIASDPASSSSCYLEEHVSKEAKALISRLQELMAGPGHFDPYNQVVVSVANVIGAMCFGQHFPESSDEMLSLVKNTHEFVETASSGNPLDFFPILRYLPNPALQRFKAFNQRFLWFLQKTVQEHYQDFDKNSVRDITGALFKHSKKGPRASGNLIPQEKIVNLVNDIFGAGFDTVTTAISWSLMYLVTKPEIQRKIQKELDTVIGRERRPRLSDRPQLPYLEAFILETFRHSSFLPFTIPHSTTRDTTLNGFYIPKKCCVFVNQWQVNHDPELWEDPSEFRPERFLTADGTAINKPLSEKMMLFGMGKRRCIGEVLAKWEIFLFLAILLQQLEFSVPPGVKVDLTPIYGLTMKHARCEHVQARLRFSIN
Out of some 16,000 compounds screened, about 5,700 (36%) were called active. Roughly 24% stayed inconclusive and do not appear here. The call rests on the fitted dose curve; in most records, active means well fitted curve in the direction sought with a large enough effect; inconclusive means small, poorly fitted or top-dose-only effect, or effect the other way; inactive means no such curve, though single readings can be large or run the other way. Some of the results follow.
Labels: 1 = active, -1 = inactive

MOLECULE	ASSIGNED CLASS
CCOC(=O)c1c2c(n3ccccc13)C(=O)c1ccccc1C2=O	1
CN(C)CCC[C@@]1(c2ccc(F)cc2)OCc2cc(C#N)ccc21	-1
CCCCN1CCC(CCC(=O)c2cc(Cl)c(N)cc2OC)CC1	-1
Cc1ccc(/S(C)=N/S(=O)(=O)c2ccc(C)cc2)cc1 (stereo unspecified)	-1
COc1ccc(/C=N/Nc2snc(SC)c2C#N)cc1OC	1
CCOC(=O)c1c(-c2ccccc2)cn2ccccc12	1

###

biological target: Cytochrome P450 1A2 (Homo sapiens) (UniProt P05177); experiment: Cytochrome panel assay with activity outcomes; conditions: recombinant CYP, pro-luciferin dealkylation, luminescence, p450-cyp1a2; series mostly up to 57.1 µM
In all, about 16,000 compounds went through this assay and about 5,700 (36%) were called active. Roughly 24% stayed inconclusive and do not appear here. The call rests on the fitted dose curve; in most records, active means well fitted curve in the direction sought with a large enough effect; inconclusive means small, poorly fitted or top-dose-only effect, or effect the other way; inactive means no such curve, though single readings can be large or run the other way. The list shows a part of the results.
Possible outcomes: True for active, False for inactive

COMPOUND	ASSIGNED CLASS
Cc1noc(C)c1C(=O)N1CCC[C@@]2(CCN(C(=O)Nc3cccc(F)c3)C2)C1	False
Cc1ccc2nc(Nc3nc(-c4ccccc4)cc(=O)[nH]3)nc(C)c2c1	True
Cc1ccc(-c2ccc(=O)n(CC(=O)NCCN(C)C)n2)cc1	False
COc1cc([N+](=O)[O-])ccc1NC(=O)CCCOc1cccc(C)c1	True
Cc1ccc(NC(=O)c2ccc(CSc3nnc(-c4ccncc4)n3C)cc2)cc1	False
O=C(c1ccc(C(F)(F)F)cc1)c1c[nH]c(C(=O)NCCCn2ccnc2)c1	True
CC[C@@H]1OC(=O)[C@H](C)[C@H](O[C@@H]2C[C@](C)(OC)[C@H](O)[C@H](C)O2)[C@H](C)[C@H](O[C@@H]2O[C@@H](C)C[C@@H](N(C)C)[C@@H]2O)[C@](C)(O)C[C@H](C)[C@@H]2N[C@H](COCCOC)O[C@H]([C@@H]2C)[C@]1(C)O	False
CCOC(=O)C(C)CC(C)C(=O)N1CCOCCN(C(=O)C(C)CC(C)C(=O)OCC)CCOCC1 (configuration not stated)	False
O=C(NN=C1C2CC3CC(C2)CC1C3)c1ccncc1	False
O=C(c1ccco1)N1CCC2(CCCN(Cc3ccccc3)C2)CC1	False
O=C(NCC1COc2ccccc2O1)C1C2C=CC3(CN(Cc4cccs4)C(=O)C13)O2 (configuration not stated)	False
Cc1cccc(OCCCC(=O)Nc2ccc(N3CCCCC3)cc2)c1	False
CN(C)Cc1ccccc1-c1cc(Nc2ccccc2)ncn1	True
c1cncc(CNc2nc(-c3ccc4c(c3)OCO4)nc3ccccc23)c1	True
O=c1c(-c2cccc(F)c2)nc2cncnc2n1C1CC1	True
Cn1c(=O)c2c(-c3cccc(F)c3)c3c(nc2n(C)c1=O)-c1ccccc1C3O (configuration not stated)	False
Cc1c(NC(=O)CCCOc2ccccc2)cccc1[N+](=O)[O-]	True
C[C@H](Oc1ccccc1)C(=O)N[C@@H]1C(=O)N2[C@@H]1SC(C)(C)[C@@H]2C(=O)O	False
Fc1ccc2nc(Nc3nc4c(s3)CCCC4)sc2c1	True
COc1cc(OC)c2cc(-c3ccncc3)cnc2c1	True
O=C(Nc1nnc(C2CC2)s1)c1ccc(S(=O)(=O)c2ccccc2)cc1	False
CC1CCN(C(=O)c2ccc(COc3ccccc3Cl)o2)CC1	True
O=C(Nc1nnc(C2CC2)s1)c1ccncc1	True
CC1(C)S[C@@H]2[C@H](NC(=O)[C@@H](N)c3ccccc3)C(=O)N2[C@H]1C(=O)O[C@H]1OC(=O)c2ccccc21	False
Clc1cccc2c1CN(C1=NCCN1)C2	True
O=c1c(-c2cccc(Cl)c2)nc2cncnc2n1C1CC1	True
Cc1cccn2c(=O)c(C=NCc3ccco3)c(Nc3ccc(SC(F)F)cc3)nc12	True
COC(=O)N1CCC2(CC1)CN(C(=O)Nc1ccccc1)C2	False
CCOC(=O)c1cnn(CCOC(=O)C(C)(C)C)c1NC(=O)C(C)(C)C	False
Cc1ccc2c(C)nc(Nc3nc(CSc4nc5ccccc5[nH]4)cc(=O)[nH]3)nc2c1	True
OC(CNCc1ccc(F)cc1)(c1ccc(F)cc1)c1ccc(F)cc1	False
CCOc1ccc(CC(=O)C2C(=O)CCCC2=O)cc1OCC	True
Cc1cccc(OCC(=O)NNC(=O)CSc2ncc(C#N)c(N)n2)c1	False
Cc1ccc(OCC(=O)NNC(=O)CCC(=O)Nc2ccc(C)cc2C)cc1	False
Clc1cccc(Cl)c1NC1=NCCN1	False
CCOc1cc(CN2CCN(c3ccc(C(C)=O)cc3)CC2)ccc1OC	False
O=C(Nc1ccc(Cl)cc1)N1CCc2[nH]c3ccccc3c2C1	True
CC(=O)n1nc(-c2ccco2)nc1N	True
CCOc1ccc(CNC(=O)C2CCC(=O)N2C2CCCC2)cc1OC (configuration not stated)	False
CC(C)CN1CCC2(CC1)CCN(C(=O)c1cc(C(F)(F)F)cc(C(F)(F)F)c1)CC2	False
COc1ccccc1CNC(=O)C1CCN(S(=O)(=O)N2CC(C)CC(C)C2)CC1 (configuration not stated)	False
CN(C)Cc1ccccc1-c1cc(NC2CC2)ncn1	True
